# Tested on: Escherichia coli TOP10;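 further: peptides expressed intracellularly from a pBAD plasmid library in pooled LB shake-flask culture, induced with 0.3% L-arabinose, DNA abundance read by NGS, three biological replicates, DESeq2 with apeglm shrinkage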
# ASSAY_REMARKS: shrunken log2 fold change of peptide-encoding DNA abundance (4.5 h post-induction vs induction); higher = less antimicrobial activity (less host growth inhibition)
# CONDITION_DETAILS: time post-induction: 4.5 h; library: site-saturation at positions 5, 18, 19, 20
Ranges used to classify shrunken log2 fold change: bucket 1 (below -0.08), bucket 2 (-0.08 to below 0.08), bucket 3 (0.08 or more)

* RRIRQRPPRLPRPRPRPAYVPRP | bucket 2
* RRIRYRPPRLPRPRPRPSVEPRP | bucket 1
* RRIRNRPPRLPRPRPRPYRDPRP | bucket 2
* RRIRHRPPRLPRPRPRPVKDPRP | bucket 1
* RRIRKRPPRLPRPRPRPVHQPRP | bucket 3
* RRIRPRPPRLPRPRPRPNDGPRP | bucket 1
* RRIRGRPPRLPRPRPRPELEPRP | bucket 3
* RRIRPRPPRLPRPRPRPLFFPRP | bucket 2
* RRIRIRPPRLPRPRPRPQPNPRP | bucket 1
* RRIRCRPPRLPRPRPRPPWYPRP | bucket 1
* RRIRTRPPRLPRPRPRPCNKPRP | bucket 1
* RRIRLRPPRLPRPRPRPQAMPRP | bucket 2
* RRIRFRPPRLPRPRPRPSDLPRP | bucket 2
* RRIRLRPPRLPRPRPRPWNMPRP | bucket 1
* RRIRFRPPRLPRPRPRPVRNPRP | bucket 2
* RRIRGRPPRLPRPRPRPCHDPRP | bucket 3
* RRIRCRPPRLPRPRPRPAQGPRP | bucket 3
* RRIRIRPPRLPRPRPRPTEEPRP | bucket 3
* RRIRNRPPRLPRPRPRPRYYPRP | bucket 1
* RRIRMRPPRLPRPRPRPTARPRP | bucket 3
* RRIRGRPPRLPRPRPRPQIMPRP | bucket 3
* RRIRYRPPRLPRPRPRPAKTPRP | bucket 2
* RRIRFRPPRLPRPRPRPKLGPRP | bucket 2
* RRIRNRPPRLPRPRPRPHNAPRP | bucket 1
* RRIRPRPPRLPRPRPRPFEMPRP | bucket 2
* RRIRSRPPRLPRPRPRPDDVPRP | bucket 3
* RRIRHRPPRLPRPRPRPIAIPRP | bucket 2
* RRIRIRPPRLPRPRPRPAIDPRP | bucket 1
* RRIRQRPPRLPRPRPRPKLFPRP | bucket 2
* RRIRARPPRLPRPRPRPSSDPRP | bucket 3
* RRIRIRPPRLPRPRPRPGCYPRP | bucket 1
